Biological target: DN-IV quality control recombinant protein (produced by the company) (dengue virus)
Test: BLI, antibody on AMC sensor
Kindly state kon for each of the entries shown.

Worked set:
Binder: Mutation 1-46 (antibody, V domains shown) VH: EVQLQQPGPELVKPGASVKMSCKASGYTFTSSVIHWVRQKPGQGLEWIGYMNPYNDGLKYNEKFIGKAILTSDKSSSTAYMQLSSLTSEDSAVYYCTREGLFYVMDYWGQGTSVTVSS VL: QIVLTQSPAIMSASPGEKVTMTCSATSSVSYMHWYQQKSGTSPKRWIYDTSKLASGVPVRFSGSGSGTSYSLTISSMEAEDAATYFCQQWRSDLPTFGAGTKLELKR
kon: 390000 M⁻¹ s⁻¹

Binder: Mutation 1-43 (antibody, V domains shown) VH: EVQLQQPGPELVKPGASVKMSCKASGYTFTSSVIHWVRQKPGQGLEWIGYMNPYNDGIKYNEKFIGKAILTSDKSSSTAYMQLSSLTSEDSAVYYCTKEGLFYVMDYWGQGTSVTVSS VL: QIVLTQSPAIMSASPGEKVTMTCSATSSLSYMHWYQQKSGTSPKRWIYDTSKLASGVPVRFSGSGSGTSYSLTISSMEAEDAATYFCQYWRSDLPTFGAGTKLELKR
kon: 410000 M⁻¹ s⁻¹

The binder listed as Mutation 1-20 (antibody, V domains shown) VH: EVQLQQPGPELVKPGASVKMSCKASGYTFTSYVIHWVRQKPGQGLEWIGYMNPYNDGLKYNEKFIGKAILTSDKSSSTAYMQLSSLTSEDSAVYYCTKEGLFYVFDYWGQGTSVTVSS VL: QIVLTQSPAIMSASPGEKVTMTCSATSSISYMHWYQQKSGTSPKRWIYDSSKLASGVPVRFSGSGSGTSYSLTISSMEAEDAATYFCQYWRSDLPTFGAGTKLELKR has a reported kon of 45600 M⁻¹ s⁻¹
